Kindly state IC50 for each of the entries shown.
# tested.on: human calcium-sensing receptor (CaSR) (Homo sapiens, UniProt P41180)
# test.name: intracellular Ca assay, CaSR antagonist activity in HEK293/hCaSR cells
# condition.info: Fura2-AM, inhibition of response to calcium chloride ligand solution, read-out: IC50 values according to the intracellular Ca assay (CaSR antagonist activity)

Return IC50 for the following molecule: COCc1cc(-c2cccc(S(=O)(=O)N(C)C[C@H](O)CNC(C)(C)Cc3ccc4ccccc4c3)c2)ccc1C(=O)O
300 to 1000 nM

In one line, give reported IC50 of the entry CN(C[C@H](O)CNC(C)(C)Cc1ccc2ccccc2c1)S(=O)(=O)Cc1ccc(-c2cccc(C=CC(=O)O)c2)cc1 .
1000 to 3000 nM

Identify measured IC50 associated with CN(C[C@H](O)CNC(C)(C)CC1Cc2ccccc2C1)S(=O)(=O)c1ccc(-c2ccc(F)c(CCC(=O)O)c2)cc1C(F)(F)F
≤ 300 nM

Consider the molecule CN(C[C@H](O)CNC(C)(C)CC1Cc2ccccc2C1)S(=O)(=O)c1cc(-c2ccc(F)c(C(=O)O)c2)cc(C(F)(F)F)c1 and give its recorded IC50.
≤ 300 nM

# return recorded IC50 for input CN(C[C@H](O)CNC(C)(C)CC1Cc2ccccc2C1)S(=O)(=O)c1ccc(-c2ccc(C(=O)O)c(Cl)c2)cc1C(F)(F)F
≤ 300 nM

Determine from records and report IC50 for CN(C[C@H](O)CNC(C)(C)Cc1ccc2ccccc2c1)S(=O)(=O)c1ccc(-c2cc3c(c(C(=O)O)c2)OCC3)cc1
1000 to 3000 nM

Read the entry Cc1cc(-c2cccc(S(=O)(=O)N(C)C[C@H](O)CNC(C)(C)Cc3ccc4ccccc4c3)c2)ccc1C(=O)O and write its reported IC50.
≤ 300 nM

Kindly indicate its recorded IC50. Item: CCc1cc(-c2ccc(CCC(=O)O)cc2Cl)ccc1S(=O)(=O)N(C)C[C@H](O)CNC(C)(C)CC1Cc2ccccc2C1
≤ 300 nM

Read the entry CN(C[C@H](O)CNC(C)(C)CCCc1ccccc1)S(=O)(=O)c1c(Cl)cc(-c2cccc(CCC(=O)O)c2)cc1Cl and write its reported IC50.
≤ 300 nM

Using the record for CN(C[C@H](O)CNC(C)(C)Cc1ccc2ccccc2c1)S(=O)(=O)c1cccc(-c2ccc(C(=O)O)cc2F)c1 , state its measured IC50.
300 to 1000 nM

Complete the entry with IC50 for CN(C[C@H](O)CNC(C)(C)Cc1ccc2ccccc2c1)S(=O)(=O)Cc1cccc(-c2ccc(C=CC(=O)O)cc2)c1
300 to 1000 nM

Please supply the value of reported IC50 for the item CN(C[C@H](O)CNC(C)(C)CC1Cc2ccccc2C1)S(=O)(=O)c1cc(-c2ccc(CCC(=O)O)cc2)cc(C(F)(F)F)c1
≤ 300 nM

---

Consider the following compounds; for each one, report its pIC50.
# tested.on: human calcium-sensing receptor (CaSR) (Homo sapiens, UniProt P41180)
# Sequence (P41180 20-1078): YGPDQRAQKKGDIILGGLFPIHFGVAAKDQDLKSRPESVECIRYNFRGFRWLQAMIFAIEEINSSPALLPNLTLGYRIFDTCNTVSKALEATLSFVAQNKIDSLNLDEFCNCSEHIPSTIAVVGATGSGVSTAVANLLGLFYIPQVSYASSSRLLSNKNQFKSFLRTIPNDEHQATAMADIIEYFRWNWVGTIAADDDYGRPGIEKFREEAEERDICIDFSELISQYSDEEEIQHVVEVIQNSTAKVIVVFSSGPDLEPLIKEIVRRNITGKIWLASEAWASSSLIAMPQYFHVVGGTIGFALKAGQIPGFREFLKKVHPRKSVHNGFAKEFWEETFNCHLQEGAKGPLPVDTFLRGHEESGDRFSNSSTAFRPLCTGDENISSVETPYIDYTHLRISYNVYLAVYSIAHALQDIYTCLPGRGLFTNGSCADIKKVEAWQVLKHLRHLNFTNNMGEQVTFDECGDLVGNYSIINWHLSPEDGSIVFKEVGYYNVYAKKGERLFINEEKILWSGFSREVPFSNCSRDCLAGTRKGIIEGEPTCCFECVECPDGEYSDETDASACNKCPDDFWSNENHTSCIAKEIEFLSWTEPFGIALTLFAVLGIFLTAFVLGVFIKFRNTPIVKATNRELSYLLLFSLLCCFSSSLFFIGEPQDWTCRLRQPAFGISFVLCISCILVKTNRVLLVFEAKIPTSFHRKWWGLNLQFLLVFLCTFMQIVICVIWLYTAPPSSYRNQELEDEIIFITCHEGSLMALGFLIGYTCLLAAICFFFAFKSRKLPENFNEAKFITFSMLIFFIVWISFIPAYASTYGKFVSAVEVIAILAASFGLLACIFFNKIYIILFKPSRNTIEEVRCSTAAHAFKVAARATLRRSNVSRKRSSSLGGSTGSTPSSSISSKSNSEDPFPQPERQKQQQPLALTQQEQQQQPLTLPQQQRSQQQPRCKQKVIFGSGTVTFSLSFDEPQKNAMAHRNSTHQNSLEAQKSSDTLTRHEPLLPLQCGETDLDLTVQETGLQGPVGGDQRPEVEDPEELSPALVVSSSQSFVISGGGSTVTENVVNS
# test.name: intracellular Ca assay, CaSR antagonist activity in HEK293/hCaSR cells
# condition.info: Fura2-AM, inhibition of response to calcium chloride ligand solution, read-out: IC50 values according to the intracellular Ca assay (CaSR antagonist activity)
# Procedure: HEK293 cells stably expressing human calcium-sensing receptor (CaSR) (termed HEK293/hCaSR cells) were used. HEK293/hCaSR cells were cultured in a culture medium [DMEM medium containing 0.5 mg/mL Geneticin, 50 Unit/mL penicillin, 50 μg/mL streptomycin and 10% fetal bovine serum (FBS), all manufactured by Invitrogen] to semiconfluent in an incubator at 37° C. under 5% carbon dioxide atmosphere. […]
pIC50: −log10 of the molar value.

Could you please provide reported pIC50 for CN(C[C@H](O)CNC(C)(C)CC1Cc2ccccc2C1)S(=O)(=O)c1cc(-c2ccc(CC(=O)O)cc2)cc(C(F)(F)F)c1 [Exp. 3-133] ? Thanks!
≥ 6.52

Give me measured pIC50, please, for this compound: CN(C[C@H](O)CNC(C)(C)Cc1ccc2ccccc2c1)S(=O)(=O)c1cccc(-c2ccc(NCC(=O)O)cc2)c1 [Exp. 3-28]
6.00 to 6.52

Fill in reported pIC50 for this entry: CN(C[C@H](O)CNC(C)(C)Cc1ccc2ccccc2c1)S(=O)(=O)Cc1ccc(-c2ccc(CCC(=O)O)cc2)cc1 [Exp. 3-90]
5.52 to 6.00

Return pIC50 for the following compound: CN(C[C@H](O)CNC(C)(C)CC1Cc2ccccc2C1)S(=O)(=O)c1ccc(-c2cccc(CCC(=O)O)n2)c(Cl)c1 [Exp. 9-161]
≥ 6.52

Input CN(C[C@H](O)CNC(C)(C)Cc1ccc2ccccc2c1)S(=O)(=O)c1cccc(-c2cccc(C(=O)O)c2)c1 [Exp. 3-5] , output reported pIC50.
≥ 6.52

Identify pIC50 associated with the compound CN(C[C@H](O)CNC(C)(C)CC1Cc2ccccc2C1)S(=O)(=O)c1cccc(-c2ccc(C=CC(=O)O)cc2)c1 [Exp. 3-56]
6.00 to 6.52

Indicate its recorded pIC50; the compound in question is CN(C[C@H](O)CNC(C)(C)Cc1ccc2ccccc2c1)S(=O)(=O)c1cccc(-c2ccc(C(=O)O)c(N)c2)c1 [Exp. 3-10]
≥ 6.52

---

Give IC50 for every item shown.
# tested.on: human calcium-sensing receptor (CaSR) (Homo sapiens)
# Sequence (P41180 20-1078): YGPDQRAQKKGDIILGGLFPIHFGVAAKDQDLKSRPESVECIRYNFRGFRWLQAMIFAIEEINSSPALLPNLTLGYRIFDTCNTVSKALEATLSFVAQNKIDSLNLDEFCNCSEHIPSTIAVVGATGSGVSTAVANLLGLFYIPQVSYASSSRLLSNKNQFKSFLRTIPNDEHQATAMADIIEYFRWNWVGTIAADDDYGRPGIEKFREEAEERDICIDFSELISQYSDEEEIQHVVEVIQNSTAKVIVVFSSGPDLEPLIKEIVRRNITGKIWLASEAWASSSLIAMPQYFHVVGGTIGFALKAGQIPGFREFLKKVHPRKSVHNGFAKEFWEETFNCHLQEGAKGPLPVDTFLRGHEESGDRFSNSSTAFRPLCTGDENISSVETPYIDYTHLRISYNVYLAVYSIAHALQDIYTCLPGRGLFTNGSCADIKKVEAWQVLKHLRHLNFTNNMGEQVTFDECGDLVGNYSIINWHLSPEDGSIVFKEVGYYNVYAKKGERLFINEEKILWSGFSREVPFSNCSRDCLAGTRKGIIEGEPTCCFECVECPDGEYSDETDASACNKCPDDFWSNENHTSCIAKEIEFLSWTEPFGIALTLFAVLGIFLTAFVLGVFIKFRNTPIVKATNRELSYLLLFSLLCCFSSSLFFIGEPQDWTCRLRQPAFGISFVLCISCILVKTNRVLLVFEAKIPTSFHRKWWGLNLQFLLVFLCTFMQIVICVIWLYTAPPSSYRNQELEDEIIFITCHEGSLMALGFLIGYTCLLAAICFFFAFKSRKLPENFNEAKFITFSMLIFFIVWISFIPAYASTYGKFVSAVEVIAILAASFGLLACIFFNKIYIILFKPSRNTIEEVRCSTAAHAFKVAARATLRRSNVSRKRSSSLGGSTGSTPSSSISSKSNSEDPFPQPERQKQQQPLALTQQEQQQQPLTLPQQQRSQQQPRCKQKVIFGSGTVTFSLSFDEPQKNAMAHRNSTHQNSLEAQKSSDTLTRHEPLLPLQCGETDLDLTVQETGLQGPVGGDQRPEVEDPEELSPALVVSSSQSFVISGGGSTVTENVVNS
# test.name: intracellular Ca assay, CaSR antagonist activity in HEK293/hCaSR cells
# condition.info: Fura2-AM, inhibition of response to calcium chloride ligand solution, read-out: IC50 values according to the intracellular Ca assay (CaSR antagonist activity)

Give the value of IC50 reported for the following: CN(C[C@H](O)CNC(C)(C)Cc1ccc2ccccc2c1)S(=O)(=O)c1ccc(-c2cc(C(=O)O)cc([N+](=O)[O-])c2)cc1
300 to 1000 nM

Quick one: give measured IC50 for CN(C[C@H](O)CNC(C)(C)Cc1ccc2ccccc2c1)S(=O)(=O)c1ccc(-c2ccc(SCC(=O)O)cc2)cc1
300 to 1000 nM

Please report IC50 for the following compound: Cc1cc(-c2ccc(S(=O)(=O)N(C)C[C@H](O)CNC(C)(C)Cc3ccc4ccccc4c3)cc2)ccc1C(=O)O
300 to 1000 nM

Identify measured IC50 corresponding to CN(C[C@H](O)CNC(C)(C)Cc1ccc2ccccc2c1)S(=O)(=O)c1cccc(-c2cc(C(=O)O)cc([N+](=O)[O-])c2)c1
1000 to 3000 nM

Provide measured IC50 value, entry: CN(C[C@H](O)CNC(C)(C)Cc1ccc2ccccc2c1)S(=O)(=O)c1cccc(-c2ccc(C(=O)O)s2)c1
300 to 1000 nM

Supply reported IC50 belonging to this compound: CN(C[C@H](O)CNC(C)(C)CC1Cc2ccccc2C1)S(=O)(=O)c1ccc(-c2cc(CCC(=O)O)ccc2F)cc1C(F)(F)F
≤ 300 nM

Complete the entry with IC50 for CCc1cc(-c2ccc(CCC(=O)O)cc2)ccc1S(=O)(=O)N(C)C[C@H](O)CNC(C)(C)CCCc1cccc(F)c1
≤ 300 nM

Retrieve IC50 measured for CN(C[C@H](O)CNC(C)(C)Cc1ccc2ccccc2c1)S(=O)(=O)c1ccc(-c2cc(F)c(C(=O)O)c(F)c2)cc1 and print it.
≤ 300 nM

Report IC50, nothing else, for this compound: CN(C[C@H](O)CNC(C)(C)Cc1ccc2ccccc2c1)S(=O)(=O)c1cccc(-c2cc(F)cc(C(=O)O)c2)c1
≤ 300 nM

Output IC50 of CN(C[C@H](O)CNC(C)(C)Cc1ccc2ccccc2c1)S(=O)(=O)c1cccc(-c2cc(N)cc(C(=O)O)c2)c1
300 to 1000 nM

Supply reported IC50 belonging to this compound: CN(C[C@H](O)CNC(C)(C)CCCc1ccsc1)S(=O)(=O)c1cc(-c2cccc(CCC(=O)O)c2)cc(C(F)(F)F)c1
≤ 300 nM

Consider the compound CN(C[C@H](O)CNC(C)(C)CC1Cc2ccccc2C1)S(=O)(=O)c1cc(-c2cccc(CC(=O)O)c2)cc(C(F)(F)F)c1 . State its measured IC50.
≤ 300 nM

Supply IC50 value. Item: Cc1cc(C(=O)O)ccc1-c1cccc(S(=O)(=O)N(C)C[C@H](O)CNC(C)(C)CC2Cc3ccccc3C2)c1
≤ 300 nM
